# Assay Remarks: protein stability index of a GFP-peptide fusion (yeast GPS) (PSI 1-4); higher = more stable; sorted into four equal gates, so the index is relative within each strain
# Assay Context: doa10∆
Note to self: values exactly at 2 are MET. So protein stability index at or above 2 is MET, below is NOT MET.

Chain: LYKIFSYALSMEKDKLK [SNU114]
Category Label: NOT MET
//
Chain: VEVDITLSPNVTDSSLL [GRR1]
Category Label: MET
//
Chain: QELISKAFTNWNKRDFM [ISW2]
Category Label: MET
//
Chain: KNKKIEVYTKTIEVLDE [POP7]
Category Label: MET
//
Chain: VPVIVKARFVSKLAEEK [RPL28]
Category Label: MET
